test system: Escherichia coli; assay: Antibacterial activity against Escherichia coli NCIM 2256 by agar method; type: functional
MEASURE NAME: MIC (µg/mL)

Worked examples follow.
Supply MIC value. Item: Oc1ccc(-c2nnc(CN3CCc4ccsc4C3)o2)cc1O
125

Supply MIC value. Item: c1c[nH]c(-c2nnc(CN3CCc4ccsc4C3)o2)c1
50

a: Clc1ccc(-c2nnc(CN3CCc4ccsc4C3)o2)c(Cl)c1
b: c1csc(-c2nnc(CN3CCc4ccsc4C3)o2)c1
// compare: a vs b , metric MIC, want the smaller Pick one; state its label.
b
(b: 25 µg/mL, a: 50 µg/mL)

a: COc1ccc(-c2nnc(CN3CCc4ccsc4C3)o2)cc1
b: Fc1ccc(-c2nnc(CN3CCc4ccsc4C3)o2)cc1
c: c1ccc(-c2nnc(CN3CCc4ccsc4C3)o2)nc1
Thanks in advance: please rank these 3 entries by MIC, highest to lowest. List the labels according to the requested ordering.
a, c, b
(a: 125 µg/mL, c: 50 µg/mL, b: 25 µg/mL)

A: c1ccc(-c2nnc(CN3CCc4ccsc4C3)o2)cc1
B: Clc1ccc(-c2nnc(CN3CCc4ccsc4C3)o2)cc1
C: Clc1cccc(Cl)c1-c1nnc(CN2CCc3ccsc3C2)o1
Rank items: key MIC, increasing. List the labels according to the requested ordering.
C, B, A
(C: 50 µg/mL, B: 100 µg/mL, A: 150 µg/mL)

###

system: Staphylococcus aureus; experiment: Antibacterial activity against Staphylococcus aureus NCIM 2901 by agar method; assay type: functional
MEASURE NAME: MIC (mg/L)

Worked examples follow.
Enter MIC (test system Staphylococcus aureus) for Oc1ccc(-c2nnc(CN3CCc4ccsc4C3)o2)cc1
175

Enter MIC (test system Staphylococcus aureus) for Clc1ccccc1-c1nnc(CN2CCc3ccsc3C2)o1
100

Enter MIC (test system Staphylococcus aureus) for O=C(O)c1cn(C2CC2)c2cc(N3CCNCC3)c(F)cc2c1=O
50

Enter MIC (test system Staphylococcus aureus) for Clc1ccc(-c2nnc(CN3CCc4ccsc4C3)o2)cc1
75

Enter MIC (test system Staphylococcus aureus) for COc1ccc(-c2nnc(CN3CCc4ccsc4C3)o2)cc1
100

Enter MIC (test system Staphylococcus aureus) for Clc1cccc(Cl)c1-c1nnc(CN2CCc3ccsc3C2)o1
50

1: c1ccc(-c2nnc(CN3CCc4ccsc4C3)o2)cc1
2: Clc1ccc(-c2nnc(CN3CCc4ccsc4C3)o2)c(Cl)c1
3: c1ccc(-c2nnc(CN3CCc4ccsc4C3)o2)nc1
4: Fc1ccc(-c2nnc(CN3CCc4ccsc4C3)o2)cc1
Rank items: key MIC, increasing. List the labels according to the requested ordering.
4, 3, 2, 1

###

test system: Escherichia coli; test: Antibacterial activity against Escherichia coli NCIM 2256 by agar method; assay type: functional
MEASURE NAME: MIC (µg/mL)

Supply MIC value. Item: Clc1ccccc1-c1nnc(CN2CCc3ccsc3C2)o1
125

Supply MIC value. Item: CC1(C)S[C@@H]2[C@H](NC(=O)[C@H](N)c3ccccc3)C(=O)N2[C@H]1C(=O)O
100

Supply MIC value. Item: Oc1ccc(-c2nnc(CN3CCc4ccsc4C3)o2)cc1
175

Supply MIC value. Item: O=C(O)c1cn(C2CC2)c2cc(N3CCNCC3)c(F)cc2c1=O
25

###

test system: Staphylococcus aureus; experiment: Antibacterial activity against Staphylococcus aureus NCIM 2901 by agar method; type: functional
MEASURE NAME: MIC (µg/mL)

Supply MIC value. Item: Oc1ccc(-c2nnc(CN3CCc4ccsc4C3)o2)cc1O
100

Supply MIC value. Item: c1csc(-c2nnc(CN3CCc4ccsc4C3)o2)c1
75

Supply MIC value. Item: c1c[nH]c(-c2nnc(CN3CCc4ccsc4C3)o2)c1
75

Supply MIC value. Item: CC1(C)S[C@@H]2[C@H](NC(=O)[C@H](N)c3ccccc3)C(=O)N2[C@H]1C(=O)O
250
